These data points were gathered from patent US11339157B1.

- Target Of Assay: Bub1 (Homo sapiens (Human))
- Sequence (O43683 704-1085): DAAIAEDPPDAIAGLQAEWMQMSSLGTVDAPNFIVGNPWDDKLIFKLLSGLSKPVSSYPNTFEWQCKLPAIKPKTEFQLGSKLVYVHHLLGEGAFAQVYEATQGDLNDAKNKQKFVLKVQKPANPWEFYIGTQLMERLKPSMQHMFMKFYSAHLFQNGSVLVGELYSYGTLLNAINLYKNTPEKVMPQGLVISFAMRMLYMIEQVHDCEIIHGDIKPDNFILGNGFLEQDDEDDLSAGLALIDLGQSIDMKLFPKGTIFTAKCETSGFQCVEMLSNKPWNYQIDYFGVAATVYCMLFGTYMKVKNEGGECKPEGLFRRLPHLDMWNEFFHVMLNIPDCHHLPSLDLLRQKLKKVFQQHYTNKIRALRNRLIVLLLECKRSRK
Value Kind: IC50
The answer should read as a number with its unit following.

Consider the reported IC50 for these molecules:
In [3]: df
Out[3]:
                                  structure  value_kind  measured
0  COCCOc1cnccc1-c1[nH]c2c(c1Nc1ccccc1CC(F)F)C(=O)NCC2        IC50    187 nM
1  COCCOc1cnccc1-c1[nH]c2c(c1Nc1cc(F)cc(F)c1)C(=O)NCC2        IC50   27.2 nM
2  COCCOc1cnccc1-c1[nH]c2c(c1Nc1ccccc1OC(F)F)C(=O)NCC2        IC50    192 nM

Let's switch to this molecule now.
Asked: Short answer please: IC50, Bub1 (Homo sapiens (Human)), entry "COCCOc1cnccc1-c1[nH]c2c(c1Nc1ccccc1OC)C(=O)NCC2"
Given back: 350 nM

----------
- Test system: Ba/F3-EGFR-insSVD cells
- Experimental Protocol: Proliferation assay in BA/F3 (ins SVD) cells (Cell Titer-Glo)
- Format: cell-based
- Condition: Mus musculus, BaF3, 48 h, Table 10, plated without EGF
Value Kind: log10 of IC50 (log10 of the value in µM)
Would you kindly interpret these values as log10 of IC50 expressed in µM?

>>> print(df.to_string())
                                   compound  measured
0  COC(C)(C)COc1cnccc1-c1[nH]c2c(c1Nc1cccc(F)c1C(F)(F)F)C(=O)NCC2     -1.28
1  COC(C)(C)COc1cnccc1-c1[nH]c2c(c1Nc1cccc(F)c1C#N)C(=O)NCC2     -1.26
2  O=C1NCCc2[nH]c(-c3ccncc3OCC3CCCCO3)c(Nc3cccc(Cl)c3Cl)c21 (centres unmarked)     -1.91
3  COc1c(Cl)cccc1Nc1c(-c2ccncc2OCC(C)(C)O)[nH]c2c1C(=O)NCC2     -1.75
4  COCCOc1cnccc1-c1[nH]c2c(c1Nc1cc(F)cc(F)c1)C(=O)NCC2     -0.92
5  COc1c(F)cccc1Nc1c(-c2ccncc2OCC2CCCO2)[nH]c2c1C(=O)NCC2 (centres unmarked)     -1.89
6  CC(C)(O)COc1cnccc1-c1[nH]c2c(c1Nc1cccc(F)c1)C(=O)NCC2     -0.48
7  O=C1NCCc2[nH]c(-c3ccncc3OCC3CCOCC3)c(Nc3cccc(Cl)c3OC(F)F)c21     -0.04

Asked: Could you share which log10 of IC50 value was measured for "Cc1c(F)cc(F)cc1Nc1c(-c2ccncc2OCCN(C)C)[nH]c2c1C(=O)NCC2" ?
Given back: -0.52

Asked: Could you share which log10 of IC50 value was measured for "CN1CCC[C@H]1COc1cnccc1-c1[nH]c2c(c1Nc1cccc(Cl)c1Cl)C(=O)NCC2" ?
Given back: -1.69

Asked: Could you share which log10 of IC50 value was measured for "Cc1c(Cl)cccc1Nc1c(-c2ccncc2OC[C@@H]2CCCN2C)[nH]c2c1C(=O)NCC2" ?
Given back: -1.33

Asked: Could you share which log10 of IC50 value was measured for "COc1c(Cl)cccc1Nc1c(-c2ccncc2OCC(C)(C)OC)[nH]c2c1C(=O)NCC2" ?
Given back: -2.03

Asked: Could you share which log10 of IC50 value was measured for COc1c(Cl)cccc1Nc1c(-c2ccncc2OCC2CCCCN2C)[nH]c2c1C(=O)NCC2 (centres unmarked) ?
Given back: -1.91

Asked: Could you share which log10 of IC50 value was measured for "COCCOc1cnccc1-c1[nH]c2c(c1Nc1ccccc1OC)C(=O)NCC2" ?
Given back: -0.09

Asked: Could you share which log10 of IC50 value was measured for "COc1c(Cl)cccc1Nc1c(-c2ccncc2OC[C@@H]2CCCN2)[nH]c2c1C(=O)NCC2" ?
Given back: -0.69

Asked: Could you share which log10 of IC50 value was measured for "COC(C)(C)COc1cnccc1-c1[nH]c2c(c1Nc1cccc(Cl)c1Br)C(=O)NCC2" ?
Given back: -1.80

Asked: Could you share which log10 of IC50 value was measured for "COCCOc1cnccc1-c1[nH]c2c(c1Nc1cc(F)cc(F)c1OC)C(=O)NCC2" ?
Given back: -0.83

Asked: Could you share which log10 of IC50 value was measured for "COc1c(Nc2c(-c3ccncc3OCC(C)(C)OC)[nH]c3c2C(=O)NCC3)ccc(F)c1Cl" ?
Given back: -0.76

Asked: Could you share which log10 of IC50 value was measured for "COC(C)(C)COc1cnccc1-c1[nH]c2c(c1Nc1cc(F)cc(F)c1C)C(=O)NCC2" ?
Given back: -1.30

Asked: Could you share which log10 of IC50 value was measured for COc1c(Cl)cccc1Nc1c(-c2ccncc2OCC2CCCCO2)[nH]c2c1C(=O)NCC2 (centres unmarked) ?
Given back: -2.53

Asked: Could you share which log10 of IC50 value was measured for COc1c(F)cccc1Nc1c(-c2ccncc2OC(C)Cc2ccccc2)[nH]c2c1C(=O)NCC2 (centres unmarked) ?
Given back: -0.33

Asked: Could you share which log10 of IC50 value was measured for "COc1c(Cl)cccc1Nc1c(-c2ccncc2OCCN(C)C)[nH]c2c1C(=O)NCC2" ?
Given back: -1.43

Asked: Could you share which log10 of IC50 value was measured for "COc1c(F)cc(F)cc1Nc1c(-c2ccncc2OCC(C)(C)OC)[nH]c2c1C(=O)NCC2" ?
Given back: -0.80

Asked: Could you share which log10 of IC50 value was measured for "COC(C)(C)COc1cnccc1-c1[nH]c2c(c1Nc1cccc(Cl)c1OC(F)F)C(=O)NCC2" ?
Given back: -1.76

Asked: Could you share which log10 of IC50 value was measured for "COc1c(Cl)cccc1Nc1c(-c2ccncc2OC[C@@H]2CCCN2CC(F)(F)F)[nH]c2c1C(=O)NCC2" ?
Given back: -0.85

Asked: Could you share which log10 of IC50 value was measured for "COC(C)(C)COc1cnccc1-c1[nH]c2c(c1Nc1ccccc1C(F)(F)F)C(=O)NCC2" ?
Given back: -1.14

----------
- Target Of Assay: EGFR ins SVD (insertion of SVD between D770 and N771) (Homo sapiens, UniProt P00533, INS767SVD)
- Sequence (P00533 with tags, fused parts or gaps INS767SVD limits assumed): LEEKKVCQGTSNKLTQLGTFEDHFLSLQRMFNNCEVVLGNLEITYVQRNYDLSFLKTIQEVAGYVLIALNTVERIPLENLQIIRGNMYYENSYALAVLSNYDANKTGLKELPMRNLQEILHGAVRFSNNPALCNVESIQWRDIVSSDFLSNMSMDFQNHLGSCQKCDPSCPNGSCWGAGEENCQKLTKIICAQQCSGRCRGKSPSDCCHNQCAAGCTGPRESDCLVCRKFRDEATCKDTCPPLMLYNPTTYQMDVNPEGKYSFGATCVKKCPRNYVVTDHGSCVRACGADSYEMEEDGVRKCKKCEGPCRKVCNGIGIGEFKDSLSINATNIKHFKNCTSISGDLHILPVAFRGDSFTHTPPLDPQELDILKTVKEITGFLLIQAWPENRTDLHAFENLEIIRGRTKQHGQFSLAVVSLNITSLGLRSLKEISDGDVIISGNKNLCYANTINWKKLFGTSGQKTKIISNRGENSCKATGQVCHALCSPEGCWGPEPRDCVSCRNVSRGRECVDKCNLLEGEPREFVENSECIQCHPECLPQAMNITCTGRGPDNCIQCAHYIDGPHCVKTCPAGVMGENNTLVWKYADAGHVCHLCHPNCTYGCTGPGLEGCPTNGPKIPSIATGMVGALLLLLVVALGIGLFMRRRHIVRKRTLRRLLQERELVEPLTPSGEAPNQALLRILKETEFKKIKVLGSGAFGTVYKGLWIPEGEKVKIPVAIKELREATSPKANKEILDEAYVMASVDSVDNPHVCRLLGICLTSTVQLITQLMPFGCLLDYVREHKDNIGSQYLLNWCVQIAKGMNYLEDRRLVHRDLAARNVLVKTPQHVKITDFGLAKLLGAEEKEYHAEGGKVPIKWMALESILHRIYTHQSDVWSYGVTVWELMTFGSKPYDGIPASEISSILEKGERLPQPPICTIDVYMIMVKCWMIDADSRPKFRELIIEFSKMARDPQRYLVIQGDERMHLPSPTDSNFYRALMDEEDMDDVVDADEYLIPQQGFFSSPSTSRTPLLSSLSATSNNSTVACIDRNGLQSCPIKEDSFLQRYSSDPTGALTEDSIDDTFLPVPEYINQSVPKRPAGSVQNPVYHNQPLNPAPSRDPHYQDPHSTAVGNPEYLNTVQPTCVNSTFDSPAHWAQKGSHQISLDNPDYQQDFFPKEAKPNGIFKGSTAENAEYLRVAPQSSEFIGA
- Experimental Protocol: Exon 20-Mutant-EGFR(D770_N771insSVD) kinase assay (TR-FRET)
- Format: biochemical
- Condition: 2 mM ATP; mean; read-out: EGFR ins SVD IC50 [mol/l] (mean)
Value Kind: pIC50
FYI, pIC50 means -log10 of a concentration in mol per litre.

In [3]: df
Out[3]:
                                  structure  value_kind  measured
0  COCCOc1cnccc1-c1[nH]c2c(c1Nc1ccccc1CC(F)F)C(=O)NCC2       pIC50      9.31
1  CCOc1c(F)cccc1Nc1c(-c2ccncc2OCC(C)(C)OC)[nH]c2c1C(=O)NCC2       pIC50      9.57
2  COC(C)(C)COc1cnccc1-c1[nH]c2c(c1Nc1cccc(F)c1CC(F)F)C(=O)NCC2       pIC50      9.59
3  COCCOc1cnccc1-c1[nH]c2c(c1Nc1cccc(F)c1C)C(=O)NCC2       pIC50      9.83
4  COC(C)(C)COc1cnccc1-c1[nH]c2c(c1Nc1cccc(F)c1O)C(=O)NCC2       pIC50      9.27

Asked: Could you share which pIC50 value was measured for "CN1CCC[C@H]1COc1cnccc1-c1[nH]c2c(c1Nc1cccc(F)c1)C(=O)NCC2" ?
Given back: 9.51

Asked: Could you share which pIC50 value was measured for "CN(C)CCOc1cnccc1-c1[nH]c2c(c1Nc1cccc(F)c1)C(=O)NCC2" ?
Given back: 8.81

Asked: Could you share which pIC50 value was measured for "COc1c(F)cccc1Nc1c(-c2ccncc2OCC(C)(C)OC)[nH]c2c1C(=O)NCC2" ?
Given back: 9.95

Asked: Could you share which pIC50 value was measured for "COCCOc1cnccc1-c1[nH]c2c(c1Nc1ccccc1OC)C(=O)NCC2" ?
Given back: 8.36

----------
- Tested on: Ba/F3-EGFR-insSVD cells
- Experimental Protocol: Proliferation assay in BA/F3 (ins SVD) cells (Cell Titer-Glo)
- Assay type: cell-based
- Condition: Mus musculus, BaF3, 48 h, Table 10, plated without EGF
Value Kind: log10 of IC50 (log10 of the value in µM)
Would you kindly interpret these values as log10 of IC50 expressed in µM?

>>> df
                                  structure     value_kind  measured
0  O=C1NCCc2[nH]c(-c3ccncc3OC[C@@H]3CCCO3)c(Nc3cccc(Cl)c3Cl)c21  log10 of IC50     -1.79

Asked: Could you share which log10 of IC50 value was measured for "COCCOc1cnccc1-c1[nH]c2c(c1Nc1cccc(F)c1OC)C(=O)NCC2" ?
Given back: -1.62

Asked: Could you share which log10 of IC50 value was measured for "COC(C)(C)COc1cnccc1-c1[nH]c2c(c1Nc1cccc(Cl)c1Cl)C(=O)NCC2" ?
Given back: -2.15

Asked: Could you share which log10 of IC50 value was measured for "Cc1c(F)cccc1Nc1c(-c2ccncc2OCCN(C)C)[nH]c2c1C(=O)NCC2" ?
Given back: -0.62

Asked: Could you share which log10 of IC50 value was measured for "COc1c(Nc2c(-c3ccncc3OCCN(C)CC(F)(F)F)[nH]c3c2C(=O)NCC3)ccc(F)c1Cl" ?
Given back: -1.30

Asked: Could you share which log10 of IC50 value was measured for "COC(C)(C)COc1cnccc1-c1[nH]c2c(c1Nc1cccc(F)c1CC(F)F)C(=O)NCC2" ?
Given back: -1.48
